test: Intrinsic clearance in human liver microsomes; format: ADME, Microsome; conditions: read-out: CLH
reported endpoint: microsomal CLint (µL/min/mg)

Please review the following examples before continuing.
# compound, microsomal CLint [µL/min/mg]
data = [
    ("COc1cc(C(=O)NCc2cnc(-c3ccccc3)s2)ccc1-n1cnc(C)c1", 29.3),
    ("COc1cc(C(=O)N2CC[C@H](Oc3ccccc3C(F)(F)F)C2)ccc1-n1cnc(C)c1", 50.8),
    ("COc1nc(C(=O)NC2COc3ccc(Cl)c(C)c32)ccc1-n1cnc(C)c1 (racemic)", 49.3),
    ("COc1ccc2c(c1)[C@@H](NC(=O)c1ccc(-n3cnc(C)c3)c(OC)c1)CO2", 16.9),
    ("COc1nc(C(=O)N[C@H]2COc3ccc(Cl)cc32)ccc1-n1cnc(C)c1", 28),
]

I: COc1cc(C(=O)NC2COc3cc(Cl)ccc32)ccc1-n1cnc(C)c1 (racemic)
II: COc1cc(C(=O)N[C@@H](C)c2ccc(F)cc2)ccc1-n1cnc(C)c1
III: COc1cc(C(=O)NC2COc3ccc(F)cc32)ccc1-n1cnc(C)c1 (racemic)
IV: COc1cc(C(=O)NCC2(c3ccc(F)cc3)CCC2)ccc1-n1cnc(C)c1
(Q) Sort low-to-high on microsomal CLint, please. Write the labels, ordered according to the request.
(A) II, III, I, IV
(II: 12.6 µL/min/mg, III: 21.8 µL/min/mg, I: 35.6 µL/min/mg, IV: 112 µL/min/mg)

A: COc1cc(C(=O)NC2COc3cccc(Cl)c32)ccc1-n1cnc(C)c1 (racemic)
B: COc1cc(C(=O)NCc2cccc(C(F)(F)F)c2)ccc1-n1cnc(C)c1
(Q) # compare microsomal CLint for A vs B ; return the one with the smaller value Answer = label.
(A) B
(B: 29.2 µL/min/mg, A: 97.3 µL/min/mg)

A: CCOc1cc(C)c(CN(C(=O)c2ccc(-n3cnc(C)c3)c(OC)c2)C2CC2)cc1C(C)C
B: COc1nc(C(=O)N[C@H]2COc3ccc(Cl)c(F)c32)ccc1-n1cnc(C)c1
C: COc1cc(C(=O)N[C@H]2COc3c(Cl)cccc32)ccc1-n1cnc(C)c1
D: COc1nc(C(=O)N2CC[C@H](Oc3ccccc3C(F)(F)F)C2)ccc1-n1cnc(C)c1
(Q) Rank order required: microsomal CLint, descending. Please reply with the labels ordered as requested. Many thanks.
(A) A, D, B, C
(A: 122 µL/min/mg, D: 48.7 µL/min/mg, B: 30 µL/min/mg, C: 19.4 µL/min/mg)

====

assay: Total plasma concentration in Hartley guinea pig at 100 mg/kg, po after 4 hrs post dose; assay type: ADME, organism-based, Cavia porcellus; design: dose 100 mg/kg, route oral
reported endpoint: concentration at 4 h (ng/mL)

I: COc1cc(C(=O)N[C@H]2COc3ccc(Cl)cc32)ccc1-n1cnc(C)c1
II: COc1nc(C(=O)N[C@H]2COc3ccc(Cl)c(F)c32)ccc1-n1cnc(C)c1
(Q) When their concentration at 4 h values are compared, which is larger, I or II ? Field: selected label. Fill in the label of the entry you choose.
(A) I

====

assay: Clearance in rat; format: ADME, organism-based; details: in vivo
reported endpoint: clearance (mL/min/kg)

a: COc1cc(C(=O)N[C@H]2COc3ccc(Cl)cc32)ccc1-n1cnc(C)c1
b: COc1nc(C(=O)N[C@H]2COc3ccc(Cl)c(F)c32)ccc1-n1cnc(C)c1
(Q) # argmax over clearance for candidates a and b Lab log: write the label of the selected item as the result.
(A) b

====

experiment: Half life in rat; format: ADME, organism-based; details: in vivo
reported endpoint: half-life (h)

A: COc1cc(C(=O)N[C@H]2COc3ccc(Cl)cc32)ccc1-n1cnc(C)c1
B: COc1nc(C(=O)N[C@H]2COc3ccc(Cl)c(F)c32)ccc1-n1cnc(C)c1
(Q) Two entries are listed, A and B . Which one carries the higher half-life? Your answer should be the label attached to the chosen record.
(A) A
(A: 2.43 h, B: 0.64 h)

====

test: Drug uptake in Hartley guinea pig brain at 100 mg/kg, po after 4 hrs post dose; format: ADME, organism-based, Cavia porcellus; set-up: dose 100 mg/kg, route oral; settings: read-out: Drug uptake
reported endpoint: concentration at 4 h (ng/g)

P: COc1cc(C(=O)N[C@H]2COc3ccc(Cl)cc32)ccc1-n1cnc(C)c1
Q: COc1nc(C(=O)N[C@H]2COc3ccc(Cl)c(F)c32)ccc1-n1cnc(C)c1
(Q) Compare P and Q and name the one whose reported concentration at 4 h is smaller. // caller expects the label of the chosen entry
(A) Q
(Q: 3710 ng/g, P: 22100 ng/g)

====

test: Inhibition of gamma secretase expressed in CHO cells expressing APP assessed as amyloid beta42 production; format: cell-based
pIC50: −log10 of the molar value.
reported endpoint: pIC50

# compound, pIC50
measured = [
    ("COc1nc(C(=O)N[C@H]2COc3ccc(Cl)cc32)ccc1-n1cnc(C)c1", 6.46),
    ("COc1cc(/C=C2\\CCCN([C@@H](C)c3ccc(F)cc3)C2=O)ccc1-n1cnc(C)c1", 6.84),
]

I: COc1cc(C(=O)N2CC[C@H](Oc3ccccc3C(F)(F)F)C2)ccc1-n1cnc(C)c1
II: COc1cc(C(=O)N[C@H]2CCc3ccc(Cl)cc32)ccc1-n1cnc(C)c1
(Q) Which value of pIC50 is numerically greater: that of I or that of II ? Answer format: the label of the selected item.
(A) I

====

test: Fraction unbound in Hartley guinea pig brain at 100 mg/kg, po after 4 hrs post dose […]; format: ADME, organism-based, Cavia porcellus; set-up: dose 100 mg/kg, route oral
reported endpoint: fraction unbound at 4 h

1: COc1nc(C(=O)N[C@H]2COc3ccc(Cl)c(F)c32)ccc1-n1cnc(C)c1
2: COc1cc(C(=O)N[C@H]2COc3ccc(Cl)cc32)ccc1-n1cnc(C)c1
(Q) Sorting ascending by fraction unbound at 4 h, which comes first: 1 or 2 ? Which one? Tell me its label.
(A) 1
(1: 0.0097, 2: 0.018)

====

target: Gamma-secretase; test: Inhibition of gamma-secretase expressed in human HEK293 NdeltaE cells assessed as cleavage of Notch
pIC50: −log10 of the molar value.
reported endpoint: pIC50

# smiles code, test target, pIC50
records = [
    ("COc1nc(C(=O)N[C@H]2COc3ccc(Cl)c(F)c32)ccc1-n1cnc(C)c1", "Gamma-secretase", "< 4.30"),
]

API: the following record is the query input.
Summary for this molecule, COc1cc(C(=O)N[C@H]2COc3ccc(Cl)cc32)ccc1-n1cnc(C)c1 : pIC50 is < 4.30

====

assay: Fraction unbound in Hartley guinea pig plasma at 100 mg/kg, po after 4 hrs post dose; format: ADME, organism-based, Cavia porcellus; set-up: dose 100 mg/kg, route oral
reported endpoint: fraction unbound at 4 h

# smiles code, fraction unbound at 4 h
data = [
    ("COc1nc(C(=O)N[C@H]2COc3ccc(Cl)c(F)c32)ccc1-n1cnc(C)c1", 0.078),
    ("COc1cc(C(=O)N[C@H]2COc3ccc(Cl)cc32)ccc1-n1cnc(C)c1", 0.088),
]

====

test: Oral bioavailability in rat; assay type: ADME, organism-based; conditions: in vivo
reported endpoint: bioavailability (%)

I: COc1cc(C(=O)N[C@H]2COc3ccc(Cl)cc32)ccc1-n1cnc(C)c1
II: COc1nc(C(=O)N[C@H]2COc3ccc(Cl)c(F)c32)ccc1-n1cnc(C)c1
(Q) Which has the higher bioavailability, I or II ? Choose, then provide that item's label.
(A) I

====

experiment: Intrinsic clearance in human liver microsomes; assay type: ADME, Microsome; details: read-out: CLH
reported endpoint: microsomal CLint (µL/min/mg)

# smiles code, reported endpoint, quantitative readout
records = [
    ("COc1cc(/C=C2\\CCCN([C@@H](C)c3ccc(F)cc3)C2=O)ccc1-n1cnc(C)c1", "microsomal CLint", 37.1),
    ("COc1cc(C(=O)N[C@H]2CCc3ccc(Cl)cc32)ccc1-n1cnc(C)c1", "microsomal CLint", 32.7),
    ("COc1cc(C(=O)N[C@H]2COc3ccc(Cl)cc32)ccc1-n1cnc(C)c1", "microsomal CLint", 22.3),
]

I: COc1cc(C(=O)NCc2cc(-c3cccc(Cl)c3)no2)ccc1-n1cnc(C)c1
II: COc1cc(C(=O)N2CC[C@](O)(COc3ccccc3C(F)(F)F)C2)ccc1-n1cnc(C)c1
(Q) // compare measured microsomal CLint between I and II ; output the lower one Give the chosen item's label as your response.
(A) I
(I: 30 µL/min/mg, II: 124 µL/min/mg)

====

experiment: Inhibition of gamma secretase expressed in CHO cells expressing APP assessed as amyloid beta42 production; type: cell-based
reported endpoint: IC50 (nM)

Consider the worked cases shown below.
# compound, IC50 (nM)
measured = [
    ("COc1cc(C(=O)NCc2nnc(-c3cccc(Cl)c3)o2)ccc1-n1cnc(C)c1", 1460),
    ("COc1cc(C(=O)N2CC[C@H](Oc3ccccc3C(F)(F)F)C2)ncc1-n1cnc(C)c1", 5330),
    ("COc1cc(C(=O)NC2COc3cccc(Cl)c32)ccc1-n1cnc(C)c1 (racemic)", 1660),
    ("COc1ccc2c(c1)[C@@H](NC(=O)c1ccc(-n3cnc(C)c3)c(OC)c1)CO2", 2990),
    ("COc1cc(C(=O)N2CC[C@H](Oc3ccccc3C(F)(F)F)C2)cnc1-n1cnc(C)c1", 3440),
]

A: COc1cc(C(=O)NC2COc3cc(Cl)ccc32)ccc1-n1cnc(C)c1 (racemic)
B: COc1cc(C(=O)NCC2(c3ccc(F)cc3)CCC2)ccc1-n1cnc(C)c1
(Q) Could you check which of A and B has a smaller value for IC50? Select an item and report its label.
(A) B
